biological target: Cytochrome P450 (CYP3A4) (Homo sapiens); construct: human liver microsome (0.1 mg protein/mL); from tissue; host or cells: human liver microsomes; assay: Measurement of cytochrome P450 (CYP3A4) enzyme inhibition activity in human liver microsome (inhibition tests I and II, midazolam substrate); assay type: in vitro ADME; details: inhibition test I: 5 μM test compound, 2 μM midazolam, human liver microsome, 37° C. 20 minutes, no preincubation
Sequence (P08684 whole entry): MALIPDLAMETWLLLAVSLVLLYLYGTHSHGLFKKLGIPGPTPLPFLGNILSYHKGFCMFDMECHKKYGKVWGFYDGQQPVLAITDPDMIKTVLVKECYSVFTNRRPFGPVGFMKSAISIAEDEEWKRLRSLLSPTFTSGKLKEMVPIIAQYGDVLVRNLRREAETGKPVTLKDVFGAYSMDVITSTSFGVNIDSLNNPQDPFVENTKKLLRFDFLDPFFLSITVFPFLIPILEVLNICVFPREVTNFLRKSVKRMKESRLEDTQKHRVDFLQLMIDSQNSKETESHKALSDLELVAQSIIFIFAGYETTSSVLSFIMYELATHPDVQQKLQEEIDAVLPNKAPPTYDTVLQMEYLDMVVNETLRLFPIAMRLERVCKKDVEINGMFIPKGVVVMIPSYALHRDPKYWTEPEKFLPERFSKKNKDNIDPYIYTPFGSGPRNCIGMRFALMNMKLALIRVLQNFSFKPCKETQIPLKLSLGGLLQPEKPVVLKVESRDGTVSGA
measurement.name: I (%) Remaining Rate I
State just the number; it will be interpreted in %.

What reported I (%) Remaining Rate I corresponds to N#Cc1cnc(NCc2ccccc2Cl)nc1NC[C@]12CC3C[C@H](C1)[C@@H](NC[C@H]1CC[C@H](O)CC1)[C@@H](C3)C2 (relative stereo) on Cytochrome P450 (CYP3A4) (Homo sapiens)? 91

What reported I (%) Remaining Rate I corresponds to COc1ncccc1CNc1ncc(C#N)c(NC[C@]23CC4C[C@H](C2)C(N[C@H]2CC[C@H](CO)CC2)[C@@H](C4)C3)n1 (relative stereo) on Cytochrome P450 (CYP3A4) (Homo sapiens)? 88

What reported I (%) Remaining Rate I corresponds to N#Cc1cnc(NCc2ccccc2Cl)nc1NC[C@]12CC3C[C@H](C1)[C@@H](NC1CCC(N4CCC[C@@H]4CO)CC1)[C@@H](C3)C2 (relative stereo) on Cytochrome P450 (CYP3A4) (Homo sapiens)? 75

What reported I (%) Remaining Rate I corresponds to COc1ccccc1CNc1ncc(C#N)c(NC[C@]23CC4C[C@H](C2)[C@@H](NCC[C@@H](O)CO)[C@@H](C4)C3)n1 (relative stereo) on Cytochrome P450 (CYP3A4) (Homo sapiens)? 94

What reported I (%) Remaining Rate I corresponds to CSc1ccccc1CNc1ncc(C#N)c(NC[C@]23CC4C[C@H](C2)[C@@H](NC2CCNCC2)[C@@H](C4)C3)n1 (relative stereo) on Cytochrome P450 (CYP3A4) (Homo sapiens)? 85

What reported I (%) Remaining Rate I corresponds to N#Cc1cnc(NCc2ccccc2Cl)nc1NC[C@]12CC3C[C@H](C1)[C@@H](NCC1CCNCC1)[C@@H](C3)C2 on Cytochrome P450 (CYP3A4) (Homo sapiens)? 90

What reported I (%) Remaining Rate I corresponds to N#Cc1cnc(NCc2cnccc2Cl)nc1NC[C@]12CC3C[C@H](C1)[C@@H](NC1CCC(O)CC1)[C@@H](C3)C2 (stereo partly shown) on Cytochrome P450 (CYP3A4) (Homo sapiens)? 75

What reported I (%) Remaining Rate I corresponds to CSc1ccccc1CNc1ncc(C#N)c(NC[C@]23CC4C[C@H](C2)[C@@H](N[C@H]2CC[C@H](O)CC2)[C@@H](C4)C3)n1 (relative stereo) on Cytochrome P450 (CYP3A4) (Homo sapiens)? 76

What reported I (%) Remaining Rate I corresponds to COc1ncccc1CNc1ncc(C#N)c(NC[C@]23CC4C[C@H](C2)[C@@H](NC[C@H]2CC[C@H](O)CC2)[C@@H](C4)C3)n1 (relative stereo) on Cytochrome P450 (CYP3A4) (Homo sapiens)? 94

What reported I (%) Remaining Rate I corresponds to COc1ccccc1CNc1ncc(C#N)c(NC[C@]23CC4C[C@H](C2)[C@@H](N[C@H]2CC[C@H](O)CC2)[C@@H](C4)C3)n1 (relative stereo) on Cytochrome P450 (CYP3A4) (Homo sapiens)? 87

What reported I (%) Remaining Rate I corresponds to CSc1ccccc1CNc1ncc(C#N)c(NC[C@]23CC4C[C@H](C2)[C@@H](NC[C@H]2CC[C@H](CO)CC2)[C@@H](C4)C3)n1 (relative stereo) on Cytochrome P450 (CYP3A4) (Homo sapiens)? 78

What reported I (%) Remaining Rate I corresponds to N#Cc1cnc(NCc2ccccc2Cl)nc1NC[C@]12CC3C[C@H](C1)[C@@H](NC1CCNCC1)[C@@H](C3)C2 on Cytochrome P450 (CYP3A4) (Homo sapiens)? 83

What reported I (%) Remaining Rate I corresponds to COc1ccccc1CNc1ncc(C#N)c(NC[C@]23CC4C[C@H](C2)[C@@H](NCC[C@H](O)CO)[C@@H](C4)C3)n1 (relative stereo) on Cytochrome P450 (CYP3A4) (Homo sapiens)? 88

What reported I (%) Remaining Rate I corresponds to CSc1ncccc1CNc1ncc(C#N)c(NC[C@]23CC4C[C@H](C2)[C@@H](NC2CCC(O)CC2)[C@@H](C4)C3)n1 (relative stereo) on Cytochrome P450 (CYP3A4) (Homo sapiens)? 88

What reported I (%) Remaining Rate I corresponds to CSc1ccccc1CNc1ncc(C#N)c(NC[C@]23CC4C[C@H](C2)C(NC[C@H]2CC[C@H](O)CC2)[C@@H](C4)C3)n1 (relative stereo) on Cytochrome P450 (CYP3A4) (Homo sapiens)? 79

What reported I (%) Remaining Rate I corresponds to COc1ccccc1CNc1ncc(C#N)c(NC[C@]23CC4C[C@H](C2)[C@@H](NC2CCC(C)(O)CC2)[C@@H](C4)C3)n1 (single isomer, unassigned) on Cytochrome P450 (CYP3A4) (Homo sapiens)? 77

What reported I (%) Remaining Rate I corresponds to CSc1ccccc1CNc1ncc(C#N)c(NC[C@]23CC4C[C@H](C2)[C@@H](NC2CCC(O)CC2)[C@@H](C4)C3)n1 (relative stereo) on Cytochrome P450 (CYP3A4) (Homo sapiens)? 82

What reported I (%) Remaining Rate I corresponds to CN1CCC(N[C@@H]2[C@@H]3CC4C[C@H]2C[C@@](CNc2nc(NCc5ccccc5Cl)ncc2C#N)(C4)C3)CC1 (relative stereo) on Cytochrome P450 (CYP3A4) (Homo sapiens)? 88

What reported I (%) Remaining Rate I corresponds to COc1ccccc1CNc1ncc(C#N)c(NC[C@]23CC4C[C@H](C2)[C@@H](N2CC(CO)(CO)C2)[C@@H](C4)C3)n1 (relative stereo) on Cytochrome P450 (CYP3A4) (Homo sapiens)? 86

What reported I (%) Remaining Rate I corresponds to N#Cc1cnc(NCc2ccccc2Cl)nc1NC[C@]12CC3C[C@H](C1)[C@@H](NC1CCN(C4CCOCC4)CC1)[C@@H](C3)C2 (relative stereo) on Cytochrome P450 (CYP3A4) (Homo sapiens)? 83

What reported I (%) Remaining Rate I corresponds to C[C@]1(O)CC[C@H](CN[C@@H]2[C@@H]3CC4C[C@H]2C[C@@](CNc2nc(NCc5ccccc5Cl)ncc2C#N)(C4)C3)CC1 (relative stereo) on Cytochrome P450 (CYP3A4) (Homo sapiens)? 81

What reported I (%) Remaining Rate I corresponds to N#Cc1cnc(NCc2ccccc2Cl)nc1NC[C@]12CC3C[C@H](C1)[C@@H](NC1CCN(CCO)CC1)[C@@H](C3)C2 on Cytochrome P450 (CYP3A4) (Homo sapiens)? 79
